- measured on: UniProtKB P35408
- Sequence (P35408 whole entry): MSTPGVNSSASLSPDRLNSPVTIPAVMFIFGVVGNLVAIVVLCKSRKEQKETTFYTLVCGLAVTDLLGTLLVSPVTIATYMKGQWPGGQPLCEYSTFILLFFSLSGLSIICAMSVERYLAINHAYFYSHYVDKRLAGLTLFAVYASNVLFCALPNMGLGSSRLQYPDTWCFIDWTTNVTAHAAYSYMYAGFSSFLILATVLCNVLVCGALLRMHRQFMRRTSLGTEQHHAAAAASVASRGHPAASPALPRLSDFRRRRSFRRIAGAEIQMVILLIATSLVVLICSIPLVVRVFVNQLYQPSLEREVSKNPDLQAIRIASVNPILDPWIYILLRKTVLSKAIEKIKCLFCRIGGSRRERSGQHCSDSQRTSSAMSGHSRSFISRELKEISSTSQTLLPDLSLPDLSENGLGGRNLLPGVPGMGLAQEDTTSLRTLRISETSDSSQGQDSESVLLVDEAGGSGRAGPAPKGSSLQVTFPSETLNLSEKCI
- experimental protocol: hEP4 cAMP assay (BT549 breast cancer cells, HTRF cAMP)
- Type: cell-based
- condition parameters: antagonistic activity, PGE2 6 nM
Examples of compounds with documented log10 IC50 follow.
outcome measure: log10 IC50 (log10 of the value in µM)

[[record]]
smiles_entry = "O=C(O)c1ccc(-c2cc(NCCc3ccc4c(c3)CCCO4)ncn2)cc1OC1CCC1"
outcome_measure = "log10 IC50"
quantitative_readout = -0.37

[[record]]
smiles_entry = "CCOc1cc(-c2cc(NCCc3cc4ccccc4cc3OC)ncn2)cc(OC)c1C(=O)O"
outcome_measure = "log10 IC50"
quantitative_readout = -0.30

[[record]]
smiles_entry = "CCOc1cc(-c2cc(NCCc3ccc4scc(C)c4c3)ncn2)sc1C(=O)O"
outcome_measure = "log10 IC50"
quantitative_readout = -1.66

[[record]]
smiles_entry = "CCOc1cc(-c2cc(NCCc3cc4cccnc4cc3F)ncn2)sc1-c1nnn[nH]1"
outcome_measure = "log10 IC50"
quantitative_readout = -1.85

[[record]]
smiles_entry = "CCOc1cc(-c2cc(NCCc3cc4cccnc4cc3F)ncn2)sc1C(=N)NO"
outcome_measure = "log10 IC50"
quantitative_readout = -0.76

